Test system: BDF1 mice, P388 leukemia ip, median survival T/C
Test: NCI In Vivo Anticancer Drug Screen. Data for tumor model P388 Leukemia (intraperitoneal) in B6D2F1 (BDF1) mice
Conditions: endpoint: median survival time; dose: 400.0 mg/kg/injection; schedule: Q04DX003 (ip); vehicle: water; higher = longer survival
Toxic doses and inconclusive results are not listed.
measurement_name: T/C

Form field: reported T/C of CC(=O)N1CCn2nccc21
112 % of control

Form field: reported T/C of CCOC(=O)/C(N=O)=C(\O)c1ccc2ccccc2n1
92 % of control

Form field: reported T/C of COc1ccc(C2=CC(c3ccc(OC)c(OC)c3)c3c(c4ccccc4oc3=O)O2)cc1OC (centres undefined)
97 % of control

Form field: reported T/C of O=C(/C=C\c1ccnc2ccccc12)c1ccc([N+](=O)[O-])cc1
100 % of control

Form field: reported T/C of COc1ccc(/C=C/C(=O)c2ccc(OC)c(OCc3ccccc3)c2)cc1OC
88 % of control

Form field: reported T/C of C=CCCC(=O)OC(C)(C)C
114 % of control

Form field: reported T/C of CC(=O)n1ncc2ccc([N+](=O)[O-])cc21
98 % of control

Form field: reported T/C of O=C(O)c1c[nH]c2nccnc12
92 % of control

Form field: reported T/C of Nc1nccnc1C(=O)O
105 % of control

====

Catalogue of T/C readings, one per entry.
Test system: BDF1 mice, P388 leukemia ip, median survival T/C
Assay: NCI In Vivo Anticancer Drug Screen. Data for tumor model P388 Leukemia (intraperitoneal) in B6D2F1 (BDF1) mice
Settings: endpoint: median survival time; dose: 12.5 mg/kg/injection; schedule: Q01DX009 (ip); vehicle: saline; higher = longer survival
Toxic doses and inconclusive results are not listed.

COc1ccc2nc(Cl)c(C)c(C)c2c1; 96 % of control
CCC[As](=O)(O)CCC; 115 % of control
Nc1ccc(C(=O)Nc2ccc(Nc3ccncc3)cc2)c([N+](=O)[O-])c1; 97 % of control
NNC12CC3CC(CC(C3)C1)C2; 86 % of control

Form field: reported T/C of OCCNCCNc1ccnc2cc(Cl)ccc12
102 % of control

Form field: reported T/C of O=[N+]([O-])c1ccc(/C=N/c2nccs2)o1
92 % of control

Form field: reported T/C of NNc1ncnc2c1ncn2C1OC(CO)C(O)C1O (stereo not drawn)
109 % of control

Form field: reported T/C of CN(C)CCCN1c2ccccc2Sc2ccc(F)cc21
109 % of control

Form field: reported T/C of c1cc[c]([Pb]([c]2ccccc2)([c]2ccccc2)[n]2cccc2)cc1
109 % of control

Form field: reported T/C of NCCNCC[OH2+].NCCNCC[OH2+].[Cu+2].[O-][Cl+3]([O-])([O-])[O-]
100 % of control

Form field: reported T/C of NNc1cc(N)[nH]n1
106 % of control

Form field: reported T/C of CCOC(=O)C(Br)C(=O)OCC
100 % of control

Form field: reported T/C of CCCCC[C@H](CN(C)C)[C@H](O)/C=C/c1ccc(Cl)cc1
101 % of control

====

System: BDF1 mice, P388 leukemia ip, median survival T/C
Assay: NCI In Vivo Anticancer Drug Screen. Data for tumor model P388 Leukemia (intraperitoneal) in B6D2F1 (BDF1) mice
Conditions: endpoint: median survival time; dose: 6.25 mg/kg/injection; schedule: Q01DX009 (ip); vehicle: Klucel (hydroxypropylcellulose) (HPC)
Toxic doses and inconclusive results are not listed. The calls were made as follows: active = survival T/C of 150% or more; inactive = T/C below 125% in these data.
// allowed return values: True for active, False for inactive

Would you please look over these solved cases?
Cc1ccnc(NS(=O)(=O)c2ccc(N=Nc3nc4[nH]c(N)nc(=S)c4[nH]3)cc2)n1; False
CCOC(=O)C(Cc1ccc(N(CCCl)CCCl)cc1)NP1(=O)NCCCO1 (centres undefined); True
C#CC[N+](CCO)(CCO)CCCCCCCCCCCCCCCCCC; False
O=C1C(Cl)=C(N2CCOCC2)C(=O)c2ccccc21; False
O=C(C=P(c1ccccc1)(c1ccccc1)c1ccccc1)CCl; False

Check the results log: what was the call for COC1=CC=C2C3Cc4ccc(OC)c(O)c4C2(C1)CN3C (centres undefined) ?
False

Check the results log: what was the call for Cc1nc2ccccc2nc1CBr ?
False

Check the results log: what was the call for CC(=O)OC1=CCC(C(C)(C)C)CC1 (centres undefined) ?
False

Check the results log: what was the call for CC1CC2=CC(=O)C=CC2(C)C2CCC3(C)C(O)CCC3C12 (centres undefined) ?
False

====

System: BDF1 mice, P388 leukemia ip, median survival T/C
Assay: NCI In Vivo Anticancer Drug Screen. Data for tumor model P388 Leukemia (intraperitoneal) in B6D2F1 (BDF1) mice
Details: endpoint: median survival time; dose: 0.78 mg/kg/injection; schedule: Q01DX009 (ip); vehicle: water; higher = longer survival
Inconclusive results and toxic doses are left out.
measurement_name: T/C

Previously resolved entries follow.
c1ccc(CNCCN(Cc2ccccc2)Cc2ccccc2)cc1; 105 % of control
c1ccc(CN(CCNc2ccccc2)c2ccccc2)cc1; 106 % of control
NC(N)=Nc1ccc(C(=O)Oc2ccc([N+](=O)[O-])cc2CN2CCCCC2)cc1; 101 % of control

// switching to the query compound
Form field: reported T/C of O=C1C=CC(=O)c2c(O)c(CO)c(CO)c(O)c21
115 % of control

====

System: BDF1 mice, P388 leukemia ip, median survival T/C
Assay: NCI In Vivo Anticancer Drug Screen. Data for tumor model P388 Leukemia (intraperitoneal) in B6D2F1 (BDF1) mice
Details: endpoint: median survival time; dose: 50.0 mg/kg/injection; schedule: Q01DX001 (ip); vehicle: saline sonified; higher = longer survival
Inconclusive results and toxic doses are left out.
Catalogue of T/C readings, one per entry.

Previously resolved entries follow.
COC(=O)c1oc(C(=O)OC)c(OCc2ccccc2)c1OCc1ccccc1; 100 % of control
CSC(=S)NNC(=O)C1CCCCC1; 104 % of control

Form field: reported T/C of COC1=C2CCCCC2=[N+]2CCc3ccccc3C2C1 (stereo unspecified)
95 % of control

Form field: reported T/C of Cc1ccc2oc3ccccc3c(=O)c2c1
95 % of control

Form field: reported T/C of CCCCCCCCCC(=O)NN
95 % of control

Form field: reported T/C of CC(O)C(=O)N1Cc2cc3ccccc3nc2C1 (stereo unspecified)
95 % of control

====

Catalogue of T/C readings, one per entry.
System: BDF1 mice, P388 leukemia ip, median survival T/C
Assay: NCI In Vivo Anticancer Drug Screen. Data for tumor model P388 Leukemia (intraperitoneal) in B6D2F1 (BDF1) mice
Conditions: endpoint: median survival time; dose: 200.0 mg/kg/injection; schedule: Q04DX002 (ip); vehicle: saline with Tween-80; higher = longer survival
Toxic doses and inconclusive results are not listed.

Previously resolved entries follow.
O=C(NC1CCC1C(=O)O)OCc1ccccc1 (stereo not given); 104 % of control
COc1ccc(C(O)C2CCCN(C)S2(=O)=O)cc1 (stereo not given); 112 % of control
CC(=O)n1nc2c(c1CC(C)C)C(=O)C(Nc1ccccc1)=CC2=O; 108 % of control
CN(c1ccccc1)c1nc(=O)c2cc3ccc(=O)oc3cc2o1; 109 % of control
CC1(C)C2CCC1(C)C(Cl)C2 (stereo not given); 103 % of control

Form field: reported T/C of CCOC(=O)c1c/c(=C(\C)O)c(=O)n2c1nc1ccccc12
87 % of control

Form field: reported T/C of O=C1CC2(C(=O)N1CN(Cc1ccccc1)Cc1ccccc1)c1ccccc1-c1ccccc12
86 % of control

Form field: reported T/C of CSc1nc(N)c2c(C(N)=O)cc(=O)[nH]c2n1
90 % of control

Form field: reported T/C of Cc1cc(C=O)c(O)c(C=O)c1
110 % of control

Form field: reported T/C of Cc1cc(N(C)C)ccc1/C=C/c1ccnc2ccccc12
107 % of control

====

Tested on: BDF1 mice, P388 leukemia ip, median survival T/C
Test: NCI In Vivo Anticancer Drug Screen. Data for tumor model P388 Leukemia (intraperitoneal) in B6D2F1 (BDF1) mice
Conditions: endpoint: median survival time; dose: 25.0 mg/kg/injection; schedule: Q01DX009 (ip); vehicle: other; higher = longer survival
Toxic doses and inconclusive results are not listed.
measurement_name: T/C

Previously resolved entries follow.
c1ccc2c(c1)ccc1c2c[n+](CCCCCCCC[n+]2cc3c4ccccc4ccc3c3ccccc32)c2ccccc12; 95 % of control
COc1ccc(/C(C#N)=C\c2ccnc3ccccc23)cc1; 93 % of control
N#CCc1cnc2nc(N)nc(N)c2n1; 107 % of control

Form field: reported T/C of COP(=O)(O)/C(C)=N/NS(=O)(=O)c1ccc(C)cc1
100 % of control

Form field: reported T/C of CC1(C2CC(=O)c3c(O)ccc(O)c3C2)OCCO1 (stereo not given)
107 % of control
